# Protocol description: Pharmacokinetics of absorbed triterpenoid prototypes in rat serum after oral YLQS extract
# Test parameters: male, Sprague-Dawley, 36.99 g/kg
Recorded endpoint: AUC(0-t) (ng·h/mL)
Expressed in ng·h/mL, but write only the number.

Enquiry: Consider the molecule C=C(C)C1CC=C2C(=CCC3(C)C(C(CCC(=C)C(C)(C)O)C(=O)O)C(O)CC23C)C1(C)CCC(=O)O (stereo not drawn) [Poricoic acid D] and give its measured AUC(0-t).
Return: 68

Enquiry: Recorded AUC(0-t) for C=C(C)[C@@H]1CC=C2C(=CC[C@]3(C)[C@@H]([C@@H](CCC(=C)C(C)(C)O)C(=O)O)[C@H](O)C[C@@]23C)[C@@]1(C)CCC(=O)OC [Poricoic acid DM] , please?
Return: 77.1

Enquiry: Which AUC(0-t) value is on record for C=C(C)[C@@H]1CCC2=C(CC[C@]3(C)[C@@H]([C@@H](CCC=C(C)C)C(=O)O)[C@H](O)C[C@@]23C)[C@@]1(C)CCC(=O)O [Poricoic acid G] ?
Return: 4090

Enquiry: Entry under review: C=C(C)[C@@H]1CC=C2C(=CC[C@]3(C)[C@@H]([C@@H](CCC=C(C)C)C(=O)O)[C@H](O)C[C@@]23C)[C@@]1(C)CCC(=O)O [Poricoic acid B] . Reported AUC(0-t)?
Return: 2710

Enquiry: GET /values?readout=AUC(0-t)&item= C=C(C)C1CC=C2C(=CCC3(C)C(C(CCC=C(C)CO)C(=O)O)C(O)CC23C)C1(C)CCC(=O)O (stereo not drawn) [Poricoic acid E]
Return: 205

Enquiry: For the molecule shown here, C=C(C)C1CC=C2C(=CCC3(C)C(C(CCC=C(C)C)C(=O)O)CCC23C)C1(C)CCC(=O)O (stereo not drawn) [16-Deoxyporicoic acid B] , give the reported AUC(0-t).
Return: 1970

* * *

Provide the reported Cmax of each item.
# Protocol description: Pharmacokinetics of absorbed triterpenoid prototypes in rat serum after oral YLQS extract
# Test parameters: male, Sprague-Dawley, 36.99 g/kg
Just the number please, in ng/mL, no unit attached.

Enquiry: Record request: Cmax value, item C=C(C)C1CC=C2C(=CCC3(C)C(C(CCC=C(C)CO)C(=O)O)C(O)CC23C)C1(C)CCC(=O)O (stereo not drawn)
Return: 16

Enquiry: Need Cmax, item C=C(C)[C@@H]1CCC2=C(CC[C@]3(C)[C@@H]([C@@H](CCC=C(C)C)C(=O)O)[C@H](O)C[C@@]23C)[C@@]1(C)CCC(=O)O
Return: 470

Enquiry: GET /values?readout=Cmax&item= C=C(C)[C@@H]1CC=C2C(=CC[C@]3(C)[C@@H]([C@@H](CCC=C(C)C)C(=O)O)[C@H](O)C[C@@]23C)[C@@]1(C)CCC(=O)O
Return: 214

Enquiry: Quick check: Cmax of C=C(C)C1CC=C2C(=CCC3(C)C(C(CCC=C(C)C)C(=O)O)CCC23C)C1(C)CCC(=O)O (stereo not drawn) ?
Return: 290

Enquiry: I have this compound here, C=C(C)C1CC=C2C(=CCC3(C)C(C(CCC(=C)C(C)(C)O)C(=O)O)C(O)CC23C)C1(C)CCC(=O)O (stereo not drawn) , and I need its recorded Cmax.
Return: 7.5

Enquiry: Quick one: Cmax of C=C(C)[C@@H]1CC=C2C(=CC[C@]3(C)[C@@H]([C@@H](CCC(=C)C(C)(C)O)C(=O)O)[C@H](O)C[C@@]23C)[C@@]1(C)CCC(=O)OC ?
Return: 13.2
